Cited source: paper PMC8473292

Each entry below carries its reported CC50.
- assayText: in vitro
- testSettings: African green monkey
Counter-ions that a name gives are not always drawn.

Solved entries (count: 3):
> print(dat)
                                   molecule  property    result
1        O=c1ccc2cc(O)c(O)cc2o1 [Esculetin]      CC50  > 100 µM
2  COc1ccc2c(c1)[nH]c1c(C)nccc12 [Harmine hydrochloride]      CC50  > 100 µM
3  C[C@H]1[C@H](C)CC[C@]2(C(=O)O)CC[C@]3(C)C(=CC[C@@H]4[C@@]5(C)CCC(=O)C(C)(C)[C@@H]5CC[C@]43C)[C@H]12 [Ursonic acid]      CC50     41 µM

Next item in the queue.
Field request: CC50 | item: Cc1cc2c(C(C)C)c(O)c(O)c(C=O)c2c(O)c1-c1c(C)cc2c(C(C)C)c(O)c(O)c(C=O)c2c1O [gossypol-Acetic acid]
> 100 µM

* * *

Each entry below carries its reported pIC50.
- System: rPEDV-NLuc
- assayText: microbe, parasite or virus in culture
- Format: cell-based, Porcine epidemic diarrhea virus (PEDV) YN150 strain
- testSettings: Vero cells, rPEDV-NLuc MOI 0.01, 1 h pre-treatment, 1.25-10 μM, NLuc activity at 20 h post-infection; read-out: IC50
Entry type: numeric. Quantity: pIC50, the -log10 of concentration in molar units.

> print(dat)
                                   compound  property  result
1  CC[C@]12C=CCN3CC[C@]4(C(=C(C(=O)OC)C1)Nc1ccccc14)[C@@H]32.Cl [Tabersonine hydrochloride]     pIC50    5.37
2  COc1cc(/C=C/c2ccc(O)c(O)c2)cc(OC)c1 [3′-Hydroxypterostilbene]     pIC50    5.37

Next item in the queue.
Field request: pIC50 | item: C=CC(C)(C)c1cc(/C=C/C(=O)c2ccc(O)cc2)c(OC)cc1O
5.40

* * *

- assayText: in vitro
- testSettings: African green monkey
Each entry below carries its reported CC50.

Solved entries (count: 3):
molecule	property	result
C[C@H](CCC(=O)O)[C@H]1CC[C@H]2[C@@H]3CC[C@@H]4C[C@H](O)CC[C@]4(C)[C@H]3CC[C@]12C [Lithocholic acid]	CC50	> 100 µM
Cc1cc(O)c2c(c1)C(=O)c1cc(O)cc(O)c1C2=O [Emodin]	CC50	> 100 µM
C[C@@H]1[C@H](O)[C@@H](C)/C=C/C=C/C=C/C=C/C=C/C=C/C=C/[C@H](O[C@@H]2O[C@H](C)[C@@H](O)[C@H](N)[C@@H]2O)C[C@@H]2O[C@](O)(C[C@@H](O)C[C@@H](O)[C@H](O)CC[C@@H](O)C[C@@H](O)CC(=O)O[C@H]1C)C[C@H](O)[C@H]2C(=O)O [Amphotericin B, reference compound]	CC50	> 100 µM

Next item in the queue.
Field request: CC50 | item: C=C1C(=O)[C@]23[C@H](O)[C@H]1CC[C@H]2[C@@]12CO[C@]3(O)[C@@H](O)[C@@H]1C(C)(C)CC[C@@H]2O [Oridonin]
35 µM

* * *

- System: rPEDV-NLuc
- assayText: microbe, parasite or virus in culture
- Type: cell-based, Porcine epidemic diarrhea virus (PEDV) YN150 strain
- testSettings: Vero cells, rPEDV-NLuc MOI 0.01, 1 h pre-treatment, 1.25-10 μM, NLuc activity at 20 h post-infection
property: pIC50
Entry type: numeric. Quantity: pIC50, the -log10 of concentration in molar units.

Field request: pIC50 | item: COc1ccc2c(c1)[nH]c1c(C)nccc12 [Harmine]
5.71
